Data credit: the DeepSol protein solubility set

- Assay: soluble on expression in E. coli; label from the status in PepcDB or PDB records

Sequence Content: MNILLCCSAGMSTSLLVTKMEAAAKARGLEGKIWAVSGDAVKTNIDQADVLLLGPQVRYMLSSMKTLADERNVGIDVINPMHYGMMNGEAVLDHALTLKK
soluble on expression in E. coli: not soluble
//
Sequence Content: MGSSHHHHHHGKTIFVIVPTNEEQVAFLEALAKQDELNFDWQNPPTEPGQPVVILIPSDMVEWFLEMLKAKGIPFTVYVEEGGSENLYFQGGGGGGAASLGDFGQEYQAIMESAGKGFGMLYRDMTAPPASYQWECVEDLSLQYSVAYASLTEPYTVNVLTSMITVTRTESTPGVSYNLIGIACTYDGNCGDLKRGNLLTFSLRKDLIIIVTGSVLSNGITNFLPVSYYVVQLASSCSSANIANVTRPFSVGASSVWMQLWQ
soluble on expression in E. coli: not soluble
